Test system: DeltatarO mutant
method notes: S. aureus survival, RN4220 and DeltatarO strains – OD600, teichoic acid synthesis inhibitors, primary screen (AID 463173)
assay context: S. aureus RN4220 wild type/DeltatarO growth, OD600, 18 h, active compounds read low, screened at 18.75 µg/mL (by protocol)
Among all 52,000 compounds or so, about 4,300 (8.3%) were called active. The sample holds actives, similar compounds and a random draw of the others, so the mix is not that of the screen.
Catalogue of survival values
The answer is to be given in %; state only the numeric part.

[ask] Entry Cc1ccc2c(c1C)NC(C(=O)O)C1CC=CC21 (stereo not given) needs its survival filled in; supply it.
[reply] 85

[ask] Return survival for the following compound: O=c1[nH]c2ccccc2nc1/C=C(\O)c1ccccc1
[reply] 83

[ask] Provide only the value of recorded survival for Cc1ccc([C@H]2Nc3ccc(S(=O)(=O)Nc4cccc(Cl)c4C)cc3[C@H]3C=CC[C@H]32)cc1
[reply] 50

[ask] Read the entry Cc1nn2c(-c3ccco3)ccnc2c1-c1ccc(Br)cc1 and write its reported survival.
[reply] 81

[ask] Annotate the compound COC(=O)c1ccc([C@@H]2Nc3c(C)cc(C)cc3[C@@H]3C=CC[C@@H]32)cc1 with its measured survival.
[reply] 51

###

Measured survival by item
Tested on: DeltatarO mutant
method notes: S. aureus survival, RN4220 and DeltatarO strains – OD600, teichoic acid synthesis inhibitors, primary screen (AID 463173)
assay context: S. aureus RN4220 wild type/DeltatarO growth, OD600, 18 h, active compounds read low, screened at 18.75 µg/mL (by protocol)
Out of some 52,000 compounds screened, about 4,300 (8.3%) were called active. This excerpt belongs to a sample that is enriched for actives.

[ask] Give the reported value of survival for this record: O=C(Nc1cc(F)ccc1F)c1ccc(CN2CC(=O)N3CCCCC3C2=O)cc1 (stereo not given)
[reply] 92% (inactive)

[ask] Let me know recorded survival for CCOc1ccccc1NC(=O)CSc1ncc(S(=O)(=O)c2ccc(C)c(C)c2)c(N)n1 , thanks.
[reply] 99% (inactive)

[ask] Supply recorded survival for CCc1ccc(NC(=O)c2ccc(CN3CC(=O)N4CCCCC4C3=O)cc2)cc1 (stereo not given) here.
[reply] 66% (inactive)

[ask] Supply recorded survival for O=C(Nc1ccc(F)cc1)c1ccc(CN2CC(=O)N3CCCCC3C2=O)cc1 (stereo not given) here.
[reply] -4% (active)

[ask] Consider the compound COc1ccc(CCNC(=O)c2ccc3c(c2)N(Cc2ccccc2C)C(=O)c2ccccc2S3)cc1OC and give its recorded survival.
[reply] 118% (inactive)

###

survival by entry:
Tested on: DeltatarO mutant
method notes: S. aureus survival, RN4220 and DeltatarO strains – OD600, teichoic acid synthesis inhibitors, primary screen (AID 463173)
assay context: S. aureus RN4220 wild type/DeltatarO growth, OD600, 18 h, active compounds read low, screened at 18.75 µg/mL (by protocol)
About 4,300 (8.3%) of roughly 52,000 compounds were called active. Shown is part of a subset that was picked to be rich in actives.
Give the value in % but do not write % after it.

{"chemical structure": "Cc1cccc(-n2cnc3cc(C(=O)NC4CCCCCC4)ccc32)c1", "tested on": "DeltatarO mutant", "readout type": "survival", "value reported": 106}
{"chemical structure": "CCCCCNC(=O)c1ccc2c(c1)nc(C)n2-c1cccc(C)c1", "tested on": "DeltatarO mutant", "readout type": "survival", "value reported": 0}
{"chemical structure": "Cc1ccc(-n2cnc3cc(C(=O)NCc4ccccc4Cl)ccc32)c(C)c1", "tested on": "DeltatarO mutant", "readout type": "survival", "value reported": 37}
{"chemical structure": "Cc1cccc(-n2c(C)nc3cc(C(=O)NCCC4=CCCCC4)ccc32)c1", "tested on": "DeltatarO mutant", "readout type": "survival", "value reported": 71}

[ask] For the compound CCCNC(=O)c1ccc2c(c1)ncn2-c1ccc(C)cc1C , give its measured survival value.
[reply] 75

[ask] Let me know recorded survival for Cc1cccc(-n2cnc3cc(C(=O)NCc4ccccc4Cl)ccc32)c1 , thanks.
[reply] 72

###

Test system: DeltatarO mutant
method notes: S. aureus survival, RN4220 and DeltatarO strains – OD600, teichoic acid synthesis inhibitors, primary screen (AID 463173)
assay context: S. aureus RN4220 wild type/DeltatarO growth, OD600, 18 h, active compounds read low, screened at 18.75 µg/mL (by protocol)
In all, about 52,000 compounds went through this assay and about 4,300 (8.3%) were called active. Shown is part of a subset that was picked to be rich in actives.
readout type: survival

As a guide, the following entries are already answered.
{"molecule": "COc1ccc(CNC(=O)CSc2n[nH]c(-c3ccc(OC)cc3)n2)cc1", "readout type": "survival", "value reported": "-5% (active)"}
{"molecule": "CC(=O)OC1COC(N2CCc3ccccc32)C(OC(C)=O)C1OC(C)=O (stereo unspecified)", "readout type": "survival", "value reported": "97% (inactive)"}
{"molecule": "COc1ccc(C)cc1NC(=O)C(Cc1ccccc1)NS(=O)(=O)c1ccc(Br)s1 (stereo unspecified)", "readout type": "survival", "value reported": "131% (inactive)"}

Let us examine a further case.
[ask] Indicate its recorded survival; the molecule in question is COC(=O)c1c(NC(=O)c2nc(SCc3ccc(C)cc3)ncc2Cl)sc2c1CCCC2
[reply] 46% (active)

###

Test system: DeltatarO mutant
method notes: S. aureus survival, RN4220 and DeltatarO strains – OD600, teichoic acid synthesis inhibitors, primary screen (AID 463173)
assay context: S. aureus RN4220 wild type/DeltatarO growth, OD600, 18 h, active compounds read low, screened at 18.75 µg/mL (by protocol)
Out of some 52,000 compounds screened, about 4,300 (8.3%) were called active. This excerpt belongs to a sample that is enriched for actives.
readout type: survival (%)
Your answer is read as %, so omit the unit and give the number.

In the examples that follow, each entry is paired with its recorded survival.
{"molecule": "C=C(C)c1cccc(C(C)(C)NC(=O)N(C)C2CCN(C)CC2)c1", "survival (%)": 82}
{"molecule": "CCCOC(=O)c1c(NC(=O)c2cc3ccccc3c(=O)o2)sc2c1CCC(C)C2 (configuration not stated)", "survival (%)": 112}
{"molecule": "Cc1ccc(CN(Cc2cccn2-c2nnc(N3CCCC3=O)s2)C(=O)Nc2ccccc2Cl)cc1", "survival (%)": 104}
{"molecule": "CCc1nnc2c(Nc3ccccc3Br)nc3ccccc3n12", "survival (%)": 93}
{"molecule": "CCN(CC)C(=O)Cn1ncc2c([nH]c3ccccc32)c1=O", "survival (%)": 118}

[ask] For CCOc1ccc(Nc2nc3ccccc3n3c(CC)nnc23)cc1 , write its survival.
[reply] 36

[ask] Note survival for the molecule shown: CCOC(=O)c1c(NC(=O)c2ccc(OCC)c(Br)c2)sc2c1CCCC2
[reply] 74

[ask] Entry COCCNC(=O)CCCn1c(SCc2ccccc2C)nc2c(sc3ccccc32)c1=O needs its survival filled in; supply it.
[reply] 97

[ask] Please indicate survival recorded for CC(C)(C)C1CCc2c(sc(NC(=O)c3cc4ccccc4c(=O)o3)c2C(N)=O)C1 (configuration not stated)
[reply] 44

[ask] For the molecule CCCCOc1cccc(C(=O)Nc2sc3c(c2C(=O)OCC)CCCC3)c1 , report survival.
[reply] 53

[ask] Return value of survival for input COc1cc(S(=O)(=O)NCCc2c(C)[nH]c3ccccc23)c(C)cc1C , no commentary.
[reply] 56

[ask] Given CCCN(C(=O)Cn1ncc2c([nH]c3ccccc32)c1=O)c1ccc(F)cc1 , respond with its survival.
[reply] 101

###

System: DeltatarO mutant
method notes: S. aureus survival, RN4220 and DeltatarO strains – OD600, teichoic acid synthesis inhibitors, primary screen (AID 463173)
assay context: S. aureus RN4220 wild type/DeltatarO growth, OD600, 18 h, active compounds read low, screened at 18.75 µg/mL (by protocol)
The campaign covered roughly 52,000 compounds. About 4,300 (8.3%) were called active. Only a selection was taken, and actives are over-represented in it overall.
survival values by entry
Numeric only. Scale: %

{"compound": "COc1cccc(Cc2nc3ccccc3nc2SCC(=O)Nc2cccc(C)c2)c1", "survival / %": 94}
{"compound": "Cc1ccc(C)c(S(=O)(=O)c2cn(C)c3cc(N4CCCCC4C)c(F)cc3c2=O)c1 (centres undefined)", "survival / %": 86}
{"compound": "CCN1CCN(Cc2c(C)[nH]c3c(C)cc(C)cc3c2=O)CC1", "survival / %": 59}

[ask] Give the reported survival for this compound. CCN(C(=O)CSc1nc2ccccc2nc1Cc1cccc(OC)c1)c1cccc(C)c1
[reply] 0

[ask] Identify survival associated with the compound O=C(Nc1nnc(N2CCCCCC2)s1)Nc1cc(F)ccc1F
[reply] 103

###

Listed here are compounds together with their documented survival.
Test system: DeltatarO mutant
method notes: S. aureus survival, RN4220 and DeltatarO strains – OD600, teichoic acid synthesis inhibitors, primary screen (AID 463173)
assay context: S. aureus RN4220 wild type/DeltatarO growth, OD600, 18 h, active compounds read low, screened at 18.75 µg/mL (by protocol)
Among all 52,000 compounds or so, about 4,300 (8.3%) were called active. Only a selection was taken, and actives are over-represented in it overall.
Lab book: enter the figure in %, no units written.

{"compound": "CC1CCc2c(sc(NC(=O)c3ccc(Cl)cc3Cl)c2C#N)C1 (stereo not given)", "value units": "%", "value reported": 71}

[ask] Quick one: give measured survival for O=c1[nH]c2ccc(N=Cc3ccccc3C(F)(F)F)cc2[nH]1
[reply] 71

[ask] Using known records, supply survival for COC(=O)c1cc2oc(C)cc2n1Cc1ccc(Cl)cc1
[reply] 73

[ask] Identify measured survival corresponding to CCCSc1ncc(Cl)c(C(=O)Nc2c(C(=O)c3ccc(F)cc3)oc3ccccc23)n1
[reply] 44

[ask] Tell me its survival given CCCSc1ncc(Cl)c(C(=O)Nc2c(C(=O)c3ccc(C)cc3)oc3ccccc23)n1 as the entry.
[reply] 56

[ask] Given the compound COC(=O)c1cc2oc(C)cc2n1Cc1ccc(C)cc1 , write its reported survival.
[reply] 69

[ask] For the compound CS(=O)(=O)c1ncc(Cl)c(C(=O)Nc2c(C(=O)c3ccc(Cl)cc3)oc3ccccc23)n1 , report survival.
[reply] 109

[ask] Fill in survival for record COc1ccc(N2C(=O)C(CC(=O)Nc3ccccc3)N(CCC3=CCCCC3)C2=O)cc1 (stereo not given)
[reply] 72

[ask] Check the records and state survival for Cc1ccccc1NC(=O)c1sc2nc3n(c(=O)c2c1C)N=C(c1ccccc1)CS3
[reply] 88

[ask] Provide one value: measured survival of CCSc1ncc(Cl)c(C(=O)Nc2c(C(=O)c3ccccc3)oc3ccccc23)n1
[reply] 79

These data points were gathered from PubChem BioAssay AID463173.
